Source of measurements: patent US8604085B2

# methodDescription: Qualitative solubility screening
# Format: physicochemical
# particulars: organic solvent or mixture, thermodynamic from solid, solvent Tetrahydrofuran; 50 mg in 4 mL; read-out: Solubility at Room Temp (RT)
propertyName: solubility

Notebook: Br.CC(NC(C)(C)C)C(=O)c1cccc(Cl)c1 (stereo not shown) [Bupropion hydrobromide] , solubility read as < 12.5 mg/mL

----------
# methodDescription: Qualitative solubility screening
# Type: physicochemical
# particulars: organic solvent or mixture, thermodynamic from solid, solvent 2-Methyl-1-Propanol; 50 mg in 4 mL; read-out: Solubility at Room Temp (RT)
propertyName: solubility

Notebook: Br.CC(NC(C)(C)C)C(=O)c1cccc(Cl)c1 (stereo not shown) [Bupropion hydrobromide] , solubility read as > 12.5 mg/mL
